- measurement-notes: recombinant UMI read abundance after kanamycin selection (control-corrected) (log10(CPM+1)); higher = more efficient recombination; extreme values may be limits of the assay; sequences stand for … in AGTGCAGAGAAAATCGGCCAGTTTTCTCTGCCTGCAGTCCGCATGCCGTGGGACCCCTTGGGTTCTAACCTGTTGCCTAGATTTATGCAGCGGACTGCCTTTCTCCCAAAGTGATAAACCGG…AGGTTGGTTTCACT; site = the 11-nt donor
Label rule met when recombinant UMI read abundance (log10) is at or above 0.4; anything below gets rule not met.

Task: # check: recombinant UMI read abundance (log10) of CAGGTCACATGGACCGGTTTTCCCGGTAATCCGTATTTGGG (site CAGGTCACTCC) is greater than or equal to 0.4
Output: rule not met

Task: # check: recombinant UMI read abundance (log10) of CTAGAATCATGGACCGGTTTTCCCGGTAATCCGTATTTGAC (site CTAGTATCTGT) is greater than or equal to 0.4
Output: rule met

Task: # check: recombinant UMI read abundance (log10) of CTCTAGCCATGGACCGGTTTTCCCGGTAATCCGTATTTGCC (site CCCTAGCCTGG) is greater than or equal to 0.4
Output: rule not met

Task: # check: recombinant UMI read abundance (log10) of CGATCATCATGGACCGGTTTTCCCGGTAATCCGTATTTGCA (site CGATCATCTCG) is greater than or equal to 0.4
Output: rule not met

Task: # check: recombinant UMI read abundance (log10) of CGATTGGCATGGACCGGTTTTCCCGGTAATCCGTATTTGCT (site CGATTGGCTAG) is greater than or equal to 0.4
Output: rule met

###

- measurement-notes: recombinant barcode read abundance after kanamycin selection (control-corrected) (log10(CPM+1)); higher = more efficient recombination; sequences stand for … in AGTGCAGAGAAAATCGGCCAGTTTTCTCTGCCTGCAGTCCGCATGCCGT…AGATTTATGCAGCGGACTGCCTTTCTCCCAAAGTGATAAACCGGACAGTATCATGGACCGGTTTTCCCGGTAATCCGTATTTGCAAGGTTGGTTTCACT; site = the 11-nt target
Label 1.0 when recombinant barcode read abundance (log10) is at or above 0.08; anything below gets 0.0.

These recorded examples may help you get a feel for the data.
AGTCAAACTTGGGTTCTAACCTGTTGCCT (site AGTCAAACTAG)	1.0
CGTCTCCCTTGGGTTCTAACCTGTTGCCT (site CCTCTGCCTAG)	0.0
GTGCCCTCTTGGGTTCTAACCTGTTGCCG (site GTGCCCGCTCC)	0.0
AATTGCCCTTGGGTTCTAACCTGTTGCCT (site ATTTGCCCTAG)	1.0
CTCGGTACTTGGGTTCTAACCTGTTGCCA (site CTCGGTTCTAG)	0.0

Task: # check: recombinant barcode read abundance (log10) of CCTACAGCTTGGGTTCTAACCTGTTGCCT (site CCTACATCTAG) is greater than or equal to 0.08
Output: 0.0

Task: # check: recombinant barcode read abundance (log10) of CTCCGTCCTTGGGTTCTAACCTGTTGCTT (site CTCCGCCCTAA) is greater than or equal to 0.08
Output: 1.0

Task: # check: recombinant barcode read abundance (log10) of GCTCAGTCTTGGGTTCTAACCTGTTGCCT (site GCTCAGTCTAG) is greater than or equal to 0.08
Output: 1.0

Task: # check: recombinant barcode read abundance (log10) of TCTTGGACTTGGGTTCTAACCTGTTGCTG (site TCTTGGACTTA) is greater than or equal to 0.08
Output: 0.0
